- TARGET_OR_TEST_SYSTEM: FAP-expressing human WI-38 fibroblasts (Homo sapiens)
- Construct: FAP-expressing human WI-38 fibroblasts (ECACC) were cultured in EMEM; host or cells: WI-38 human fibroblasts
- Sequence (Q12884 whole entry): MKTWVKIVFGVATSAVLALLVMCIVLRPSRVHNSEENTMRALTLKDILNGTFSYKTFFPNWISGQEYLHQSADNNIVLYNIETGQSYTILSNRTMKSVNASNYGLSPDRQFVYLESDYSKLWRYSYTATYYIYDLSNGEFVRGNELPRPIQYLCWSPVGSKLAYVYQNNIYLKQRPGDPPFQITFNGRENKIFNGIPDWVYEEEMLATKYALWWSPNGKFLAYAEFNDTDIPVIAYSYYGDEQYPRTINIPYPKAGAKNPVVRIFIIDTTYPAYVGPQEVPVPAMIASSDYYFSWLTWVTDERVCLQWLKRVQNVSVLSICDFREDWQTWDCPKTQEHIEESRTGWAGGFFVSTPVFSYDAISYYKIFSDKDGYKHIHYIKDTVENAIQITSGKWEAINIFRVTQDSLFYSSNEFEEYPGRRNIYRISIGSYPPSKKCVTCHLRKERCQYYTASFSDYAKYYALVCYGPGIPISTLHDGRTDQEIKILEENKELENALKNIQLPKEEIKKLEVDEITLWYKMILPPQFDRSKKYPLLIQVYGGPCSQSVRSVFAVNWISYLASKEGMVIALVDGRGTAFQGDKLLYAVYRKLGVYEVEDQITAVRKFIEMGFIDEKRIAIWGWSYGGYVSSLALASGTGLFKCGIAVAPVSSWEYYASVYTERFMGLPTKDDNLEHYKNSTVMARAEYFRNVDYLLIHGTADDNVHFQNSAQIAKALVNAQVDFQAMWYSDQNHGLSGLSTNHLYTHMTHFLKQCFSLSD
- ASSAY_OVERVIEW: Competitive FACS binding assay
- SETUP_CONDITIONS: pIC50 Category (FACS), competition with 3 nM Cy5-labeled compound, 4° C., 1 hour
pIC50: −log10 of the molar value. Numbered stars: 1 amine (or outer) side, 2 acyl side, 3 side chain; on linkers, the order of the positions; unused ones are H or OH. Bridge positions count the residues as written; N and C are the ends. Square brackets hold non-standard residues; d marks the D form. Peptide text beside a SMILES is read from it. * marks the point of attachment. TBMB(SCH2CH2NH-DOTA) = O=C(O)CN1CCN(CC(=O)O)CCN(CC(=O)NCCSCc2cc(C[*:1])cc(C[*:2])c2)CCN(CC(=O)O)CC1; X3 = NC(=O)[C@H](CCCCNC(=O)CN1CCN(CC(=O)O)CCN(CC(=O)O)CCN(CC(=O)O)CC1)NC(=O)CCC(=O)NCCCOCCOCCOCCCN*; X12 = NCCNCC(CNCCN)C(=O)NCCCOCCOCCOCCCN*; mXylylene = c1cc(C[*:1])cc(C[*:2])c1; Suc = O=C(CCC(=O)[*:2])[*:1]; Nle = CCCC[C@H](N)C(=O)O; Hexanoyl = CCCCCC(=O)*
READOUT: pIC50

[[record]]
compound = "CCCCCC(=O)N[C@H]1CSCc2cc(CSCCNC(=O)CN3CCN(CC(=O)O)CCN(CC(=O)O)CCN(CC(=O)O)CC3)cc(c2)CSC[C@@H](C(=O)O)NC(=O)[C@H](Cc2ccccc2)NC(=O)[C@H](CCC(N)=O)NC(=O)[C@H]([C@@H](C)O)NC(=O)[C@@H]2CCCN2C(=O)[C@@H]2CCCN2C1"
meas_value = "> 8.00"

[[record]]
compound = "CCCCCC(=O)N[C@H]1CSCc2cc(CSCCNC(=O)CCOCCOCCOCCOCCOCCOCCNC(=O)CN(CCN(CCN(CC(=O)O)CC(=O)O)CC(=O)O)CC(=O)O)cc(c2)CSC[C@@H](C(=O)O)NC(=O)[C@H](Cc2ccccc2)NC(=O)[C@H](CCC(N)=O)NC(=O)[C@H]([C@@H](C)O)NC(=O)[C@@H]2CCCN2C(=O)[C@@H]2CCCN2C1=O"
meas_value = "7.10 to 8.00"

[[record]]
compound = "CCCCCC(=O)N[C@H]1CSCc2cc(CSCCNC(=O)CCP(=O)(O)CN3CCN(CP(=O)(O)CO)CCN(CP(=O)(O)CO)CC3)cc(c2)CSC[C@@H](C(=O)O)NC(=O)[C@H](Cc2ccccc2)NC(=O)[C@H](CCC(N)=O)NC(=O)[C@H]([C@@H](C)O)NC(=O)[C@@H]2CCCN2C(=O)[C@@H]2CCCN2C1=O"
meas_value = "> 8.00"

[[record]]
compound = "CCCC[C@H](NC(=O)CCC(=O)NCCCOCCOCCOCCCNC(=O)C(CNCCN)CNCCN)C(=O)N[C@H]1CSCc2cccc(c2)CSC[C@@H](C(=O)O)NC(=O)[C@H](Cc2ccccc2)NC(=O)[C@H](CCC(=O)O)NC(=O)[C@H]([C@@H](C)O)NC(=O)[C@@H]2CCCN2C(=O)[C@@H]2CCCN2C1=O [3BP-4161] ({X12-Suc}-[Nle]CPPTEFC-OH; linker 2-8 via mXylylene)"
meas_value = "> 8.00"

[[record]]
compound = "CCCCCC(=O)N[C@H]1CSCc2cc(CSCCNC(=O)CN3CCN(CC(=O)O)CCN(CC(=O)O)CCN(CC(=O)O)CC3)cc(c2)CSC[C@@H](C(=O)N[C@@H](CC(=O)O)C(=O)NCCCOCCOCCOCCCNC(=O)CCC(=O)N[C@@H](CCCCNC(=O)CN2CCN(CC(=O)O)CCN(CC(=O)O)CCN(CC(=O)O)CC2)C(N)=O)NC(=O)[C@H](Cc2ccccc2)NC(=O)[C@H](CCC(N)=O)NC(=O)[C@H]([C@@H](C)O)NC(=O)[C@@H]2CCCN2C(=O)[C@@H]2CCCN2C1=O [3BP-4391] (Hexanoyl-CPPTQFCD-X3; linker 1-7 via TBMB(SCH2CH2NH-DOTA))"
meas_value = "> 8.00"

[[record]]
compound = "CCCC[C@H](NC(=O)CC[C@H](NC(=O)C(CNCCN)CNCCN)C(=O)O)C(=O)N[C@H]1CSCc2cccc(c2)CSC[C@@H](C(=O)O)NC(=O)[C@H](Cc2ccccc2)NC(=O)[C@H](CCC(N)=O)NC(=O)[C@H]([C@@H](C)O)NC(=O)[C@@H]2CCCN2C(=O)[C@@H]2CCCN2C1=O"
meas_value = "< 6.00"


* * *

- ASSAY_OVERVIEW: in vivo
- SETUP_CONDITIONS: rat, plasma, intravenous, 200 nmol/kg
READOUT: clearance

[[record]]
cpd_smiles = "CCCCCC(=O)N[C@H]1CSCc2cc(CSCCNC(=O)CN3CCN(CC(=O)O)CCN(CC(=O)O)CCN(CC(=O)O)CC3)cc(c2)CSC[C@@H](C(=O)O)NC(=O)[C@H](Cc2ccccc2)NC(=O)[C@H](CCC(N)=O)NC(=O)[C@H]([C@@H](C)O)NC(=O)[C@@H]2CCCN2C(=O)[C@@H]2CCCN2C1=O"
meas_value = "4.58 mL/min/kg"


* * *

Listed next: entries and their corresponding pIC50.
- TARGET_OR_TEST_SYSTEM: Human recombinant FAP (Homo sapiens, UniProt Q12884)
- Sequence (Q12884 whole entry): as the sequence (Q12884 whole entry) above
- ASSAY_OVERVIEW: FRET-based FAP protease activity assay
- Type: biochemical
- Design: purchased R&D systems 3715-SE
- SETUP_CONDITIONS: pIC50 Category (Activity), FRET substrate, 37° C.
pIC50: −log10 of the molar value. Numbered stars: 1 amine (or outer) side, 2 acyl side, 3 side chain; on linkers, the order of the positions; unused ones are H or OH. Bridge positions count the residues as written; N and C are the ends. Square brackets hold non-standard residues; d marks the D form. Peptide text beside a SMILES is read from it. * marks the point of attachment. X1 = O=C(O)CN1CCN(CC(=O)O)CCN(CC(=O)N2CCN(Cc3cc(C[*:1])cc(C[*:2])c3)CC2)CCN(CC(=O)O)CC1; X52 = NCCOCCOCC(=O)N1CCN(Cc2cc(C[*:1])cc(C[*:2])c2)CC1; Pentanesulfonyl = CCCCCS(=O)(=O)*; X41 = NCCCCCC(=O)NCCCOCCOCCOCCCN*; Suc = O=C(CCC(=O)[*:2])[*:1]; Nle = CCCC[C@H](N)C(=O)O; Hexanoyl = CCCCCC(=O)*
READOUT: pIC50

[[record]]
compound = "CCCCCC(=O)N[C@H]1CSCc2cc(cc(CN3CCN(C(=O)COCCOCCN)CC3)c2)CSC[C@@H](C(=O)N[C@@H](CC(=O)O)C(N)=O)NC(=O)[C@H](Cc2ccccc2)NC(=O)[C@H](CCC(N)=O)NC(=O)[C@H]([C@@H](C)O)NC(=O)[C@@H]2CCCN2C(=O)[C@@H]2CCCN2C1=O [3BP-3967] (Hexanoyl-CPPTQFCD-NH2; linker 1-7 via X52)"
meas_value = "> 8.00"

[[record]]
compound = "CCCCCC(=O)N[C@H]1CSCc2cc(CSCCNC(=O)CCOCCOCCOCCOCCOCCOCCNC(=O)CN(CCN(CCN(CC(=O)O)CC(=O)O)CC(=O)O)CC(=O)O)cc(c2)CSC[C@@H](C(=O)O)NC(=O)[C@H](Cc2ccccc2)NC(=O)[C@H](CCC(N)=O)NC(=O)[C@H]([C@@H](C)O)NC(=O)[C@@H]2CCCN2C(=O)[C@@H]2CCCN2C1=O"
meas_value = "7.10 to 8.00"

[[record]]
compound = "CCCCCS(=O)(=O)N[C@H]1CSCc2cc(cc(CN3CCN(C(=O)CN4CCN(CC(=O)O)CCN(CC(=O)O)CCN(CC(=O)O)CC4)CC3)c2)CSC[C@@H](C(=O)N[C@@H](CC(=O)O)C(=O)O)NC(=O)[C@H](Cc2ccccc2)NC(=O)[C@H](CCC(N)=O)NC(=O)[C@H]([C@@H](C)O)NC(=O)[C@@H]2CCCN2C(=O)[C@@H]2CCCN2C1=O [3BP-3692] (Pentanesulfonyl-CPPTQFCD-OH; linker 1-7 via X1)"
meas_value = "> 8.00"

[[record]]
compound = "CCCC[C@H](NC(=O)CCC(=O)NCCCOCCOCCOCCCNC(=O)CCCCCN)C(=O)N[C@H]1CSCc2cc(cc(CN3CCN(C(=O)CN4CCN(CC(=O)O)CCN(CC(=O)O)CCN(CC(=O)O)CC4)CC3)c2)CSC[C@@H](C(=O)N[C@@H](CC(=O)O)C(N)=O)NC(=O)[C@H](Cc2ccccc2)NC(=O)[C@H](CCC(N)=O)NC(=O)[C@H]([C@@H](C)O)NC(=O)[C@@H]2CCCN2C(=O)[C@@H]2CCCN2C1=O [3BP-4004] ({X41-Suc}-[Nle]CPPTQFCD-NH2; linker 2-8 via X1)"
meas_value = "> 8.00"

[[record]]
compound = "CCCCCC(=O)N[C@H]1CSCc2cc(CSCCNC(=O)CCOCCOCCOCCOCCOCCOCCNC(=O)[C@H](CO)NC(=O)[C@H](CO)NC(=O)[C@H](CO)NC(=O)CS)cc(c2)CSC[C@@H](C(=O)O)NC(=O)[C@H](Cc2ccccc2)NC(=O)[C@H](CCC(N)=O)NC(=O)[C@H]([C@@H](C)O)NC(=O)[C@@H]2CCCN2C(=O)[C@@H]2CCCN2C1=O"
meas_value = "7.10 to 8.00"

